Source: the supplement of paper PMC9732359

Attribute: protein stability index
PROCEDURE SUMMARY: protein stability index of a GFP-peptide fusion (yeast GPS) (PSI 1-4); higher = more stable; sorted into four equal gates, so the index is relative within each strain
TEST CONDITIONS: ubr1∆
Lab note: record the figure alone, no unit after it.

{"SEQUENCE TEXT": "RLLSALGPRGVSITPGK [SRP21]", "protein stability index": 2.93}
{"SEQUENCE TEXT": "AIIYQRGKDGKLHVAAK [YGL100W/SEH1]", "protein stability index": 3.02}
{"SEQUENCE TEXT": "AVLKKIQSKAVEQGYED [YCG1]", "protein stability index": 3.07}
{"SEQUENCE TEXT": "LRNKIAGYTTHLMKRIQ [RPS17A]", "protein stability index": 2.99}
{"SEQUENCE TEXT": "ENPTPEKGNAKMIDFAT [SIR3]", "protein stability index": 3.03}

For the next question, use this sequence.
query: Which protein stability index value is on record for MQHNPLAGKRGPKSGST [PGD1] ?
result: 2.96
